Quick list: 100 nM Ag Bound (RU) per entry.
# TARGET_OR_SYSTEM: T1, mNPR1-mFc (mouse)
# T1 construct: also called mouse NPR1 extracellular domain expressed with a C-terminal mouse IgG2a
# T1 chain: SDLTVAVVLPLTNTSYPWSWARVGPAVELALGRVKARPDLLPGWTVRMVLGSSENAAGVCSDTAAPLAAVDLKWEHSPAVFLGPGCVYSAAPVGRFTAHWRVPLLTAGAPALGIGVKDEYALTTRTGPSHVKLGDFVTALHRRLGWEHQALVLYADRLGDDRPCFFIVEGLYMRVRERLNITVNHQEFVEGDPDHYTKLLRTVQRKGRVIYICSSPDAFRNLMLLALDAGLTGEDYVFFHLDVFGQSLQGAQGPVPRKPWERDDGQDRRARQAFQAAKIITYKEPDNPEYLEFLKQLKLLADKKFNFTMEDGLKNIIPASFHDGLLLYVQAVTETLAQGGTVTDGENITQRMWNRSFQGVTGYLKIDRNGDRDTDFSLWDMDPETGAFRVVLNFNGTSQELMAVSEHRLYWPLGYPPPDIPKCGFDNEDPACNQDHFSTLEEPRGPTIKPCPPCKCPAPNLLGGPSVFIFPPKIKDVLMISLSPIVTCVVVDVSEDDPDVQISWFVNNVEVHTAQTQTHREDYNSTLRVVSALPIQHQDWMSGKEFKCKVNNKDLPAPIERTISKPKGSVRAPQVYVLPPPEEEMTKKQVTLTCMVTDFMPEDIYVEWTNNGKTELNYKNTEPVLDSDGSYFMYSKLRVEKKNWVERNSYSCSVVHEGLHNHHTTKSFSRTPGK
# MEASUREMENT_PROTOCOL: SPR Biacore, mAb captured by anti-human Fc, 25C
ASSAY_READOUT: 100 nM Ag Bound (RU)

• mAb22805 (antibody, human IgG4, V domains shown) VH: QVQLVESGGGVVQPGRSLRLSCAASGFTFSTYGMHWVRQAPGKGLEWVALIWNDGSNKYYADSVKGRFTISRDNSKNTLDLQMNSLRAEDTAVYYCARLNTRITGTTNLDYWGQGTLVTVSS VL: DIQMTQSPSSLSASVGDRVTVSCRASQSIANYLNWYQQKPGKAPNLLIYGAYTLQSGVPSRFRGSGSGTDFTLTISSLQPEDFATYYCQQTYSTPPITFGQGTRLEIK = 0
• mAb25508 (antibody, human IgG4, V domains shown) VH: EVQLVESGGGVVRPGGSLRLSCAASGFNVDDYGMSWVRQIPGKGLEWISGINWNGGRIYYADSMKGRITISRDNAKNSLYLQMNSLRAEDTALYHCVRDQWLVRGLDYWGQGTLVTVSS VL: DIQMTQSPSSLSASVGDRVTITCRASQGIYNYLAWFQQKPGKAPKSLIYAASSLQSGVPSKFSGSGSGTDFTLTISSLQPEDFATYYCQQYNTYPYTFGQGTKLEIK = -1

Hey, just so you know, these numbers are from patent US20240309103A1.
